Data provenance: paper PMC5727059

# TARGET OR SYSTEM: human GABAρ1 (Homo sapiens, UniProt P24046)
# Construct: expressed in transfected cells; host or cells: Xenopus laevis oocytes injected with in vitro transcribed mRNA
# Sequence (P24046 22-479): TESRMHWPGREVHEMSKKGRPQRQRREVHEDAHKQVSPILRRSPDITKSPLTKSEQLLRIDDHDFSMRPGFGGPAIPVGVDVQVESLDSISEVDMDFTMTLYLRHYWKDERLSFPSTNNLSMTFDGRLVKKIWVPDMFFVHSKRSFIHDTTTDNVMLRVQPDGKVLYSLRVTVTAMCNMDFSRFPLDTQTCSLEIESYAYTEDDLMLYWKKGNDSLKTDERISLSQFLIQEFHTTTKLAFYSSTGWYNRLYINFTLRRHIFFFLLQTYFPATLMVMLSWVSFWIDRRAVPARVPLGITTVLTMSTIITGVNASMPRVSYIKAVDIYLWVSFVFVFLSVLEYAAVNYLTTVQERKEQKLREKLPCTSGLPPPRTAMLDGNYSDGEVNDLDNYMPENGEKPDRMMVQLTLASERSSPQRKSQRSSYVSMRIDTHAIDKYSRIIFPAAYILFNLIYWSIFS
# PROTOCOL DESCRIPTION: Modulation of activated GABAρ1: analogue applied during the current plateau upon activation with 3 µM GABA, oocytes
# Assay type: cell-based
# APPLIED CONDITIONS: activated GABA channels (Fig. 5D empty bars); applied during 3 µM GABA perfusion
ASSAY METRIC: Efficacy % to inhibit GABA responses

# Efficacy % to inhibit GABA responses lookup, item "NCCc1ccccc1"
63.62 ± 11.44%

"NCCc1ccc(O)c(O)c1" , same question.
61.94 ± 6.66%

Also "NCCCCO" ?
65.50 ± 4.77%

Now consider "COc1cc(CCN)ccc1O" .
51.65 ± 6.93%
